Molecular target: HLA-A*03:01 (human)
Experiment: UV peptide exchange + HLA class I ELISA
Details: remark: other sources report otherwise
// class assignment uses exchange rate vs Pos peptide with these ranges: I: < 4%; II: ≥ 4% and < 30%; III: ≥ 30%

Challenge: Please report the category associated with RVGNCKHLK (here or on the partner: biotinylated heavy chain) [P82 9-mer peptide (AR-V7 splice variant)] , nothing else.
Response given: III

Challenge: Lab note: which band did IVWWCPMSR (here or on the partner: biotinylated heavy chain) [P98 9-mer peptide (TP53 (R213D) frameshift)] land in?
Response given: III

Challenge: Exam item: assign QLIAMDSAI (here or on the partner: biotinylated heavy chain) [P22 9-mer peptide (SLC45A3-ELK4 fusion)] to the correct category.
Response given: II

Challenge: Sort RAKCKFSIL (here or on the partner: biotinylated heavy chain) [P56 9-mer peptide (SPOP(F102C))] into one of the categories.
Response given: II

Challenge: Could you tell me which band CPMSRLRLA (here or on the partner: biotinylated heavy chain) [P46 9-mer peptide (TP53 (R213D) frameshift)] belongs to?
Response given: II

Next:
Challenge: Hi, small favor: classify LLERNSFEV (here or on the partner: biotinylated heavy chain) [P73 9-mer peptide (TP53 (G266E))] by its exchange rate vs Pos peptide when you get a moment.
Response given: I
